# assay system: tPA (Homo sapiens, UniProt P00750)
# Sequence (P00750 36-562): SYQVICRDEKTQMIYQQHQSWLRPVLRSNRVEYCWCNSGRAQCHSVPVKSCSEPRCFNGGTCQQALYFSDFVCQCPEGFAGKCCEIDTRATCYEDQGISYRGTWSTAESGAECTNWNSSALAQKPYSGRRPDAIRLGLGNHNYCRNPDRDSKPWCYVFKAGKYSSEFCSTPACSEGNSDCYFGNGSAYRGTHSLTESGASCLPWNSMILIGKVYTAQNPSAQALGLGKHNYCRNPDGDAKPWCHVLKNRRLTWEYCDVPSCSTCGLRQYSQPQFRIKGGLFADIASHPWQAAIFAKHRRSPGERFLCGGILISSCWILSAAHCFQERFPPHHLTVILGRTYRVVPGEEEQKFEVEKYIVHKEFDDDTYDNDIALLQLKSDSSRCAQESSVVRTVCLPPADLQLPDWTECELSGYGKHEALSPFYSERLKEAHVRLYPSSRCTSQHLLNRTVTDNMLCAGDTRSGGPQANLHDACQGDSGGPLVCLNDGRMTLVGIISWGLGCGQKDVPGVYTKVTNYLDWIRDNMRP
# protocol notes: inhibition of tPA, dissociation constant Ki
# condition label: read-out: Ki, tPA; Table 1
Kindly state pKi for each of the entries shown.
Answers are plain numbers, as −log10 of the molar value.

compound	assay system	reading
CC1(C)C2CCC1(CS(=O)(=O)N[C@@H](Cc1cccc(C(=N)N)c1)C(=O)N1CCN(S(C)(=O)=O)CC1)C(=O)C2 (single isomer, unassigned) [Compound 7]	tPA (Homo sapiens, UniProt P00750)	4.70
CN(C)C(=O)N1CCN(C(=O)C(Cc2cccc(C(=N)N)c2)NS(=O)(=O)c2cccc3ccccc23)CC1 (stereo not drawn)	tPA (Homo sapiens, UniProt P00750)	3.57

Proceeding to the next compound to report its pKi.
Please supply the value of reported pKi for the item CC1(C)C2CCC1(CS(=O)(=O)N[C@@H](Cc1cccc(C(=N)N)c1)C(=O)N1CCN(S(C)(=O)=O)CC1)C(=O)C2 (single isomer, unassigned) [Compound 8]
4.09

Values from patent US5607937A
